- Test system: CCRIS mutagenicity, Ames/micronucleus/aberration tests
- protocol-description: CCRIS mutagenicity studies
- test-context: Test System: E. COLI; Strain/Indicator: WP2UVRA/PKM101; Metabolic Activation: RAT, LIVER, S-9, PHENOBARBITAL AND BETA-NAPHTHOFLAVONE; Method: PREINCUBATION
Active and inactive are the calls of the source. The rule behind the calls is not given here.
readout-label: mutagenic call

Field: example entries. Status: answers known.
# smiles-entry, mutagenic call
measured = [
    ("C=C(C)CC(C)(C)C", "inactive; negative"),
    ("CCOCCCl", "inactive; negative"),
    ("CCCCCCCCO", "inactive; negative"),
    ("CCCCOC(C)=O", "inactive; negative"),
]

API: the following record is the query input.
Challenge: Notebook: pull reported mutagenic call for CCRIS mutagenicity, Ames/micronucleus/aberration tests, entry C[N+](C)(C)CCO
Response given: inactive; negative

----------
- Test system: CCRIS mutagenicity, Ames/micronucleus/aberration tests
- protocol-description: CCRIS mutagenicity studies
- test-context: Test System: AMES SALMONELLA TYPHIMURIUM; Strain/Indicator: TA98; Metabolic Activation: RAT, LIVER, S-9, AROCLOR 1254; Method: PREINCUBATION
The source made the active and inactive calls. No rule for the calls is given here.
The reply should name one outcome from active, inactive

Challenge: What did the test return for OCCNc1ccc(N=Nc2ccc(N(CCO)CCO)cc2)cc1 ?
Response given: inactive

Challenge: What classification did Clc1ccc(Cl)c(Cl)c1 end up with in this test?
Response given: inactive

Challenge: Record request — test call for O=C1CN(/N=C/c2ccc([N+](=O)[O-])o2)C(=O)N1
Response given: active

Challenge: In this assay, the call recorded for C[C-](C)[N+](=O)[O-] was what?
Response given: active

Challenge: Recorded call for C=C(C)C(=O)O ?
Response given: inactive

Challenge: Record request — test call for O=c1[nH]c(=O)[nH]c(=O)[nH]1
Response given: inactive

Challenge: # outcome recorded in this test, key = OC1C=C2c3ccc4ccccc4c3-c3cccc(c32)C1O (centres undefined)
Response given: active

Challenge: Answer briefly: the call reported for Nc1nc2ccc(Cl)cc2[nH]1 in this assay.
Response given: inactive

Challenge: Hi team, can someone confirm the assay call for CC(=O)Nc1ccc(S(=O)(=O)Nc2ccccn2)cc1 ?
Response given: inactive

----------
- Test system: CCRIS mutagenicity, Ames/micronucleus/aberration tests
- protocol-description: CCRIS mutagenicity studies
- test-context: Test System: AMES SALMONELLA TYPHIMURIUM; Strain/Indicator: TA98; Metabolic Activation: NONE; Method: STANDARD PLATE
- Excerpt: The CCRIS database contains chemical records with carcinogenicity, mutagenicity, tumor promotion, and tumor inhibition test results. It was developed by the National Cancer Institute (NCI). Data are derived from studies cited in primary journals, current awareness tools, NCI reports, and other sources. Test results have been reviewed by experts in carcinogenesis and mutagenesis. CCRIS provides historical information from the years 1985 - 2011. It is no longer updated. […]
Active and inactive are the calls of the source. No rule for the calls is given here.
readout-label: mutagenic call

# molecule, mutagenic call
data = [
    ("Cc1cncc(C)n1", "active; positive"),
    ("O=Nc1ccc(NO)cc1", "active; positive"),
    ("NC(=O)N/N=C/c1ccc([N+](=O)[O-])o1", "active; positive"),
    ("OC[C@H]1O[C@@H](n2cnc3c(=S)nc[nH]c32)[C@H](O)[C@@H]1O", "inactive; negative"),
    ("Cc1ccncc1", "inactive; negative"),
    ("C=C(C)OC(C)=O", "inactive; negative"),
    ("CCc1ccc2c3c(cccc13)-c1ccccc1-2", "inactive; negative"),
    ("CC(=O)N(O)c1ccc(Br)cc1", "inactive; negative"),
]

Challenge: Name the recorded mutagenic call for CC1(C)C[C@@H]2[C@@]34C[C@]3(C(C=O)=C[C@]2(O)C1)[C@@H](O)OC4=O .
Response given: active; positive

Challenge: Give the measured mutagenic call of CCCCC1C(=O)N(c2ccccc2)N(c2ccccc2)C1=O .
Response given: inactive; negative

Challenge: So what does the record say about mutagenic call for C/C=C\c1cc(OC)c(OC)cc1OC ?
Response given: inactive; negative

Challenge: Requested read-out: mutagenic call. Entry: COCC(O)Cn1cc([N+](=O)[O-])nc1Cl (centres undefined)
Response given: inactive; negative

Challenge: Fill in: mutagenic call of c1ccc2c(c1)cc1c3c2ccc2cccc(c23)C2NC12 (centres undefined) is ___
Response given: active; positive

Challenge: Return reported mutagenic call; argument: NCC(=O)O
Response given: inactive; negative

Challenge: Given the molecule O=[N+]([O-])c1ccc2c3cccc4cccc(c5c([N+](=O)[O-])ccc1c25)c43 , what is its reported mutagenic call?
Response given: active; positive

Challenge: Name the recorded mutagenic call for CN1CCC[C@H]1c1cccnc1 .
Response given: inactive; negative

Challenge: Value lookup for mutagenic call; key = Cl/C=C(\Cl)C(Cl)Cl
Response given: active; positive

Challenge: Could you tell me which mutagenic call is on file for CNC(=O)c1cccc2c(Nc3ccc(NS(C)(=O)=O)cc3OC)c3cccc(C)c3nc12 ?
Response given: inactive; negative

Challenge: mutagenic call for S=c1nc[nH]c2nc[nH]c12 ?
Response given: inactive; negative

Challenge: Any idea what mutagenic call was measured for CCOC(=O)CBr ?
Response given: inactive; negative

Challenge: Looking for the measured mutagenic call of CCN(C(=O)CCCCl)c1snc2ccccc12 , can you help?
Response given: inactive; negative

Challenge: Which value of mutagenic call has been reported for O=C1CCC(=O)N1c1ccc(Cl)c(Cl)c1Cl in the records?
Response given: inactive; negative

Challenge: Give its mutagenic call value. Item: O=[N+]([O-])c1c(Cl)c(Cl)c2c(c1Cl)Oc1cc(Cl)c(Cl)cc1O2
Response given: active; positive

Challenge: What measured mutagenic call goes with Cc1ccc(-c2nc3ccccc3o2)cc1 ?
Response given: inactive; negative

Challenge: I'd like to know its mutagenic call. The molecule in question is COc1cc(/C=C/C(=O)CC(=O)/C=C/c2ccc(O)c(OC)c2)ccc1O
Response given: inactive; negative

Challenge: Data request, read-out mutagenic call, for Cc1cc(N)cc(C)c1N
Response given: inactive; negative

Challenge: I am curious: what mutagenic call value has been reported for CN(C)c1ccc(C(=O)c2ccc(N(C)C)cc2)cc1 ?
Response given: inactive; negative

Challenge: Could you share which mutagenic call value was measured for Oc1ccc2ccc3c4ccccc4cc4ccc1c2c43 ?
Response given: active; positive

Challenge: Please give the measured mutagenic call for this molecule: O=C(c1ccc(F)cc1)[C@@H]1O[C@@H]1c1ccccc1
Response given: inactive; negative

----------
- System: CCRIS mutagenicity, Ames/micronucleus/aberration tests
- protocol-description: CCRIS mutagenicity studies
- test-context: Test System: AMES SALMONELLA TYPHIMURIUM; Strain/Indicator: TA97; Metabolic Activation: HAMSTER, LIVER, S-9, AROCLOR 1254 (30%); Method: PREINCUBATION
Calls of active or inactive are those of the source. How the calls were made is not given here.
Write down the outcome that applies. Available outcomes: true (1) for active, false (0) for inactive

Challenge: Record request — test call for CCN(CC)c1ccc2c(-c3ccccc3C(=O)O)c3ccc(=[N+](CC)CC)cc-3oc2c1
Response given: false (0)

Challenge: Outcome? C=CC(=O)OC
Response given: false (0)

Challenge: How did this test come out for [O]=[Cr](=[O])([OH])[O][Cr](=[O])(=[O])[OH] ?
Response given: true (1)

Challenge: Could you please tell me the result logged for CCCCCCCCCCCCCCCCCC[N+](C)(C)Cc1ccccc1 in this assay?
Response given: false (0)

Challenge: What is the recorded call for this molecule in the test? S=c1nc[nH]c2nc[nH]c12
Response given: false (0)

Challenge: Returns: the outcome recorded for CCc1cc(C(N)=S)ccn1 in this assay.
Response given: false (0)

Challenge: # lookup: test call for CCCCCCC(=O)O
Response given: false (0)

Challenge: Answer briefly: the call reported for Nc1c(Cl)cc(Cl)cc1Cl in this assay.
Response given: false (0)

Challenge: Which result was noted for this molecule in the test: COC[CH2][Hg][Cl]
Response given: false (0)

----------
- System: CCRIS mutagenicity, Ames/micronucleus/aberration tests
- protocol-description: CCRIS mutagenicity studies
- test-context: Test System: AMES SALMONELLA TYPHIMURIUM; Strain/Indicator: G46; Metabolic Activation: NONE; Method: STANDARD PLATE
Calls of active or inactive are those of the source. How the calls were made is not given here.
Mark one answer only. Choices: active, inactive

Challenge: Please indicate how the test categorized CN(C)/N=N/c1nc[nH]c1C(N)=O .
Response given: inactive

Challenge: Called result for C/[N+]([O-])=N/CO
Response given: active

Challenge: Called result for ClCOCCl
Response given: active

Challenge: Which outcome was assigned to COc1cccc2c1cc([N+](=O)[O-])c1c(C(=O)O)cc3c(c12)OCO3 in this test?
Response given: inactive

Challenge: Tell me the assay call for CN(C)N=Nc1ccc(C(=O)O)cc1 please.
Response given: inactive
